The values you see were collected from PubChem BioAssay AID777.

Target: Cytochrome P450 2C9 (Homo sapiens)
Assay: blockers of cytochrome P450 2C9 activity – biochemical, luminescence, ADME assay, primary screen (AID 777)
Settings: CYP2C9 Supersomes, luciferin-H conversion, at 5 µM, active compounds read high
About 19,000 (20%) of roughly 96,000 compounds were called active. A selection follows.
Classify by measured inhibition: Met if it is equal to or exceeds 20%, Not met if it is smaller.

QUERY: Tell me whether inhibition is at least 20% here: COC(=O)C(O)(c1ccc(NC(=O)c2ccco2)c(OC)c1)C(F)(F)F (centres undefined)
RESULT: Met

QUERY: Tell me whether inhibition is at least 20% here: `O=C(CSC1c2ccccc2-c2ccccc21)N/N=C/c1ccccc1`
RESULT: Met

QUERY: Tell me whether inhibition is at least 20% here: `CCCCCCN=C(CC)c1c(O)n(CCCC)c(=O)[nH]c1=O`
RESULT: Met

QUERY: Tell me whether inhibition is at least 20% here: CCOC(=O)C(O)(c1ccc(N)c(OC)c1)C(F)(F)F (centres undefined)
RESULT: Met

QUERY: Tell me whether inhibition is at least 20% here: CCNc1nc2[nH]c(=O)c3c(c2s1)OC(N)=C(C#N)C3c1cccs1 (centres undefined)
RESULT: Not met

QUERY: Tell me whether inhibition is at least 20% here: `CCN(CC)P(=O)(Oc1cccc(C)c1)N(CC)CC`
RESULT: Met

QUERY: Tell me whether inhibition is at least 20% here: `CCN1CCN(C(=O)Cc2coc3cc(C)cc(C)c23)CC1`
RESULT: Not met

QUERY: Tell me whether inhibition is at least 20% here: `CCC(=NCc1ccco1)c1c(O)n(Cc2ccccc2)c(=O)[nH]c1=O`
RESULT: Met

QUERY: Tell me whether inhibition is at least 20% here: `CCC(=NCCCO)c1c(O)n(-c2ccc(OC)cc2)c(=O)[nH]c1=O`
RESULT: Not met
